Hey, just so you know, these numbers are from ChEMBL document CHEMBL1157539.

- Test system: HepG2
- TEST_PROTOCOL: GSK_TCMDC: Percent inhibition of human HepG2 cell line. Test compounds present at 10uM.
- Assay type: functional
Field: class. Source value: Inhibition. Ranges: lo = under 6%, mid = from 6% up to 20%, hi = 20% and over

These recorded examples may help you get a feel for the data.
COMPOUND	GROUP
COc1cccc(C(=O)Nc2ccc(S(=O)(=O)c3cc4c(cc3OC)CCN(C)CC4)cc2)c1	lo
CC(C)CCNc1nc2ccccc2nc1Nc1cccc(C(F)(F)F)c1	mid
CN1CCCN(Cc2cccc(-c3ccc(CNC(=O)c4cccc(Cl)c4)c(F)c3)c2)CC1.O=C(O)C(F)(F)F	hi

query: Lab note: sort Fc1ccc2[nH]ccc(=NN=CC=Cc3ccccc3)c2c1 into the matching Inhibition band.
result: hi

query: Lab note: sort COC(=O)c1cccc(CNCc2ccc(-c3ccc(-c4nc5cc(F)ccc5[nH]4)cc3)cc2)c1.O=C(O)C(F)(F)F into the matching Inhibition band.
result: mid

query: Lab note: sort O=C(/C=C/c1ccc(Cl)c(Cl)c1)NCCCCCCN1CCCN(C(=O)Nc2ccc(Cl)c(C(F)(F)F)c2)CC1 into the matching Inhibition band.
result: hi

query: Lab note: sort COc1ccc(-c2nc3c4ccccc4c4ccc(I)cc4c3[nH]2)cc1 into the matching Inhibition band.
result: lo

query: Lab note: sort COc1cccc(-c2csc(C(=O)NC3CCCCN(Cc4ccc(C(C)(C)C)cc4)C3)c2)c1.O=C(O)C(F)(F)F (stereo not drawn) into the matching Inhibition band.
result: mid

query: Lab note: sort O=C(/C=C/c1ccc(Cl)c(Cl)c1)NCCCCCCN1CCCN(C(=O)Nc2cccc(Cl)c2)CC1 into the matching Inhibition band.
result: hi

query: Lab note: sort Fc1ccccc1COc1ccc(Nc2ncnc3ccc(I)cc23)cc1Cl into the matching Inhibition band.
result: mid

query: Lab note: sort Nc1nc(Nc2cccc(Cl)c2)ncc1C(=O)NCc1ccncc1 into the matching Inhibition band.
result: lo

query: Lab note: sort N#Cc1ccc(-c2nc3c(N4CCCC4)cccc3n2CCNCc2ccccc2)cc1.O=C(O)C(F)(F)F into the matching Inhibition band.
result: lo

###

- System: Plasmodium falciparum
- TEST_PROTOCOL: GSK_TCMDC: Inhibition of Plasmodium falciparum Dd2 in whole red blood cells, using parasite LDH activity as an index of growth. Test compounds present at 2uM
- Assay type: functional
METRIC_NAME: Inhibition (%)
Numbers only; they are read as %.

Below, each entry is followed by its recorded Inhibition result.
COMPOUND	Inhibition / %
CCOc1c(Br)cc(C)cc1CNCCCNc1nc2ccccc2[nH]1.Cl	5
COc1ccc2nccc(N(C)CC3(O)CCN(CCc4ccc5c(c4)NC(=O)CS5)CC3)c2n1.Cl	67
COc1ccc(Nc2nc(C)cc(NCc3ccc(-c4c(C)noc4C)cc3)n2)cc1	50
Cl.O=S(=O)(c1ccc(OCc2ccc(Cl)cc2)cc1)c1cc2c(cc1OCc1ccccc1)CCN(CC1CC1)CC2	0
N#Cc1ccc(-c2ccc(C(=O)NCC3CCN(CCN4CCC(c5ccc6c(c5OCC(N)=O)CCCC6)CC4)CC3)cc2)cc1	99

query: State recorded Inhibition with Plasmodium falciparum, entry COc1ccc2cc(C(c3nnnn3CC3CCCO3)N3CCc4ccccc43)c(=O)[nH]c2c1 (stereo unspecified) , no comment.
result: 3

###

Quick reference: Inhibition of the listed items.
- Tested on: Plasmodium falciparum
- TEST_PROTOCOL: GSK_TCMDC: Inhibition of Plasmodium falciparum 3D7 in whole red blood cells, using parasite LDH activity as an index of growth. Test compounds present at 2uM
- Type: functional
Numbers only; they are read as %.

SMILES	MEASURED_TARGET	UNITS	VALUE_OBSERVED
CCCCNc1c(C(=O)OCC)c(C)nc2c1[nH]c1ccccc12	Plasmodium falciparum	%	100
Cc1cc(C(=O)OCC(N)=O)c(C)n1-c1ccc(F)cc1	Plasmodium falciparum	%	97

query: Report Inhibition for CCCCCNc1nc(Nc2ccccc2C)nc2ccccc12.Cl
result: 100

###

- System: Plasmodium falciparum
- TEST_PROTOCOL: GSK_TCMDC: Inhibition of Plasmodium falciparum 3D7 in whole red blood cells, using parasite LDH activity as an index of growth. Test compounds present at 2uM
- Assay type: functional
Quick reference: Inhibition of the listed items.
Numbers only; they are read as %.

Below, each entry is followed by its recorded Inhibition result.
COMPOUND	METRIC_NAME	UNITS	VALUE_OBSERVED
CN1CCCC(CN2CCN(Cc3cccc(-c4ccc(-c5nc6ccccc6[nH]5)cc4)c3)CC2)C1.O=C(O)C(F)(F)F (stereo not drawn)	Inhibition	%	100
Cc1ccc2[nH]c(Nc3ccc(Nc4nc5cc(C)ccc5[nH]4)c(C)c3)nc2c1	Inhibition	%	99
O=C(Nc1ccc2c(c1)CCCN2S(=O)(=O)c1cccs1)c1cc([N+](=O)[O-])ccc1Cl	Inhibition	%	93
COc1cccc(Nc2nc(C)cc(NCc3ccc(-n4ccnc4)cc3)n2)c1	Inhibition	%	100
Cc1cccc2nc(-c3ccc(-c4ccc(NC(=O)CN5CCN(C)CC5)cc4)cc3)[nH]c12	Inhibition	%	100
O=C(NC1CCN(c2ccnc3cc(Cl)ccc23)C1)c1ccc(C(F)(F)F)cc1.O=C(O)C(F)(F)F (stereo not drawn)	Inhibition	%	100
CS(=O)(=O)N1CC2(CCN(CCC(NC(=O)NCc3ccccc3Cl)c3ccc(Cl)c(Cl)c3)CC2)c2ccccc21 (stereo not drawn)	Inhibition	%	85

query: Report Inhibition for COc1cc2c(cc1S(=O)(=O)c1ccc(OCc3ccc(Cl)cc3)cc1)CCN(Cc1ccc(NC(C)=O)s1)CC2
result: 89

###

- Tested on: HepG2
- TEST_PROTOCOL: GSK_TCMDC: Percent inhibition of human HepG2 cell line. Test compounds present at 10uM.
- Format: functional
Field: class. Source value: Inhibition. Ranges: label 0: < 2%; label 1: ≥ 2% and < 20%; label 2: ≥ 20%

COMPOUND	MEASURED_TARGET	GROUP
N#Cc1ccc(-c2ccc(OCC(O)CN3CCCN(Cc4cccc(O)c4Cl)CC3)cc2)cc1 (configuration not stated)	HepG2	label 1

query: Lab note: sort COCCn1c(Sc2ncnc3sccc23)nc2ccccc21 into the matching Inhibition band.
result: label 0

query: Lab note: sort CCCNCc1ccc(-c2ccc(CN(CCOC)C(=O)CC3CCCC3=O)cc2)nc1.O=C(O)C(F)(F)F (configuration not stated) into the matching Inhibition band.
result: label 1

query: Lab note: sort COc1cc([N+](=O)[O-])ccc1NC(=O)Nc1ccc(OC(F)(F)F)cc1 into the matching Inhibition band.
result: label 1

query: Lab note: sort CN(C)Cc1ccc(-c2cccc(Nc3nccc(NCC(O)c4ccccc4)n3)c2)cc1 (configuration not stated) into the matching Inhibition band.
result: label 2

query: Lab note: sort CON=C1CCC(Cn2ccnc2)(c2ccc(Cl)cc2Cl)CC1 (configuration not stated) into the matching Inhibition band.
result: label 1

query: Lab note: sort COc1ccccc1-c1sccc1C(=O)NC1(c2cc(Cl)cc(Cl)c2)CCCC1 into the matching Inhibition band.
result: label 0

query: Lab note: sort COc1cc(C(=O)NCCCN2CCN(c3cccc(Cl)c3)CC2)ccc1-c1cc2cc(Cl)c(Cl)cc2[nH]1 into the matching Inhibition band.
result: label 2

query: Lab note: sort Cc1ccc(Cn2ncc(N3CCC(N)CC3)c(Cl)c2=O)cc1NC(=O)Nc1ccc(-c2ccccc2)cc1.O=C(O)C(F)(F)F into the matching Inhibition band.
result: label 2

query: Lab note: sort O=C(Nc1cccc(CN2CCCN(Cc3ccc(O)cc3)CC2)c1)c1ccc(Cl)c(Cl)c1.O=C(O)C(F)(F)F into the matching Inhibition band.
result: label 2

query: Lab note: sort COc1ccc(-c2nc(NC(=O)CSc3ccc([N+](=O)[O-])cc3)sc2C)cc1 into the matching Inhibition band.
result: label 0

###

- System: Plasmodium falciparum
- TEST_PROTOCOL: GSK_TCMDC: Inhibition of Plasmodium falciparum 3D7 in whole red blood cells, using parasite LDH activity as an index of growth. Test compounds present at 2uM
- Format: functional
METRIC_NAME: Inhibition (%)
Numbers only; they are read as %.

Below, each entry is followed by its recorded Inhibition result.
MOLECULE	VALUE_OBSERVED
Cc1ccccc1CNc1noc(-c2c(-c3ccccc3)noc2C)n1	94
O=C(Cc1c[nH]cn1)Nc1cccc(-c2cccc(-c3nc4cc(F)ccc4[nH]3)c2)c1	100
COCCOCCOCCn1ccc2c3c(N)nc(N)nc3ccc21	97
CC(C)(C)OC(=O)NCc1ccc(Nc2nnc(-c3cccc(C(=O)NCCC(c4ccccc4)c4ccccc4)c3)o2)cc1	100
CCCCNCCOc1ccc(-c2nc(-c3ccccc3)c(-c3ccccc3)[nH]2)cc1	100
CN(C)Cc1cccc(-c2ccc(NC(=O)c3ccc4c(=O)n(CC5CCCO5)cnc4c3)cc2)c1 (configuration not stated)	97

query: Report Inhibition for CSC1=NC(=Nc2c(C)cccc2C)C2(CCC(C(C)(C)C)CC2)N1c1ccc(O)cc1.I (configuration not stated)
result: 97
